All figures here come from paper PMC9490236.

# run.parameters: PAMPA
Where a SMILES comes first, the peptide text is derived from it. [ ]: non-standard residue; d: D form. NMeF = CN[C@@H](Cc1ccccc1)C(=O)O; NMeL = CN[C@@H](CC(C)C)C(=O)O; dNMeL = CN[C@H](CC(C)C)C(=O)O; Sar = CNCC(=O)O
metric.name: PAMPA_R3

CC(C)C[C@@H]1NC(=O)[C@H](C)NC(=O)[C@H](C)NC(=O)[C@H]2CCCN2C(=O)[C@H](Cc2ccccc2)N(C)C(=O)[C@H]2CCCN2C(=O)[C@H](CC(C)C)N(C)C(=O)[C@@H](CC(C)C)N(C)C(=O)[C@H](Cc2ccccc2)NC(=O)[C@@H](CC(C)C)NC1=O [Design D10.8] (cyclo(AAL[dL]F[dNMeL][NMeL][dP][NMeF][dP])); BQL
CC(C)C[C@@H]1NC(=O)[C@@H](CC(C)C)N(C)C(=O)[C@@H]2CCCN2C(=O)[C@H](CC(C)C)N(C)C(=O)[C@@H](C)NC(=O)[C@@H](CC(C)C)N(C)C(=O)[C@@H]2CCCN2C(=O)CN(C)C(=O)[C@H](CC(C)C)N(C)C(=O)[C@H](Cc2ccccc2)NC1=O [Design D10.57] (cyclo(F[NMeL][Sar]P[dNMeL][dA][NMeL]P[dNMeL]L)); 3.42E-06
CC(C)[C@@H]1NC(=O)[C@H](C)NC(=O)[C@H]2CCCN2C(=O)[C@@H](Cc2ccccc2)NC(=O)[C@H]2CCCN2C(=O)[C@@H]2CCCN2C(=O)[C@H](Cc2ccccc2)NC(=O)[C@H](C)NC(=O)[C@H]2CCCN2C1=O [Design D9.36, VAL DPRO ALA PHE PRO DPRO DPHE DPRO ALA] (cyclo(AFP[dP][dF][dP]AV[dP])); BQL

###

# run.parameters: PAMPA
Where a SMILES comes first, the peptide text is derived from it. [ ]: non-standard residue; d: D form. dNMeF = CN[C@H](Cc1ccccc1)C(=O)O; NMeL = CN[C@@H](CC(C)C)C(=O)O; dNMeL = CN[C@H](CC(C)C)C(=O)O
metric.name: PAMPA_Papp_Avg

CC[C@@H](C)[C@H]1NC(=O)[C@H](CC(C)C)N(C)C(=O)[C@H]2CCCN2C(=O)[C@H](CC(C)C)NC(=O)[C@H](Cc2ccccc2)N(C)C(=O)CN(C)C(=O)[C@@H](C(C)C)NC(=O)[C@H](C)NC(=O)[C@H]2CCCN2C(=O)[C@@H]2CCCN2C1=O (single isomer, unassigned) [Design D10.58.p2]; 3.23E-07
CC(C)C[C@@H]1NC(=O)[C@@H]2CCCN2C(=O)[C@@H](Cc2ccccc2)N(C)C(=O)[C@H](CC(C)C)N(C)C(=O)[C@H](CC(C)C)N(C)C(=O)[C@@H](CC(C)C)N(C)C(=O)[C@H](C)NC(=O)[C@H](C(C)C)NC(=O)CNC(=O)[C@H](Cc2ccccc2)NC1=O [Design D10.24] (cyclo(A[dNMeL][NMeL][NMeL][dNMeF]PLFGV)); BQL
CC(C)C[C@@H]1NC(=O)[C@H](C(C)C)NC(=O)[C@@H](C)NC(=O)[C@H](C)NC(=O)[C@@H]2CCCN2C(=O)[C@H]2CCCN2C(=O)[C@@H](C)NC(=O)[C@H]2CCCN2C(=O)[C@@H]2CCCN2C1=O [Design D9.34, PRO ALA DALA VAL LEU PRO DPRO DALA DPRO] (cyclo(A[dA]VLP[dP][dA][dP]P)); BQL
